The origin of these recorded values is PubChem BioAssay.

# Assay Name: modulators of CIT2-GFP expression in yeast, confirmation, S. cerevisiae, GFP fusion, cherry picks, mother/daughter gates (AID 2274)
# Measurement Setup: S. cerevisiae CIT2-GFP strain, flow cytometry, 3 h; at 10 µM
The source made the active and inactive calls.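 Rule for the calls: active = GFP response above 150% of the DMSO level; inconclusive = fewer than 70 events counted for a yeast strain; inactive = the rest.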
# valid calls are 1 = active, 0 = inactive; nothing else

Check out these entries, answers already filled in.
COc1ccc(N=Cc2nc(-c3ccccc3)oc2OC(C)=O)cc1 : 0
O=[N+]([O-])c1cc(C(F)(F)F)ccc1NCCc1ccccn1 : 0
Cc1nc2ccccc2c(=O)n1/N=C/c1ccc([N+](=O)[O-])o1 : 0
CCOc1ccc(Nc2ccc(C(=O)O)cc2[N+](=O)[O-])cc1 : 0
Oc1ccc(C2Nc3cccc4cccc(c34)N2)cc1 : 0

Ask: I would be grateful if you could indicate the recorded call for O=C(O)C1CCN(S(=O)(=O)c2ccc(Oc3ccccc3)cc2)CC1 .
Result: 0

Ask: # fetch the recorded call for C=CCOc1ccc(/C=C2\N=C(C)OC2=O)cc1OC here
Result: 0

Ask: Call for entry Cc1cccn2c(=O)c(/C=C(\C#N)C(=O)NCc3ccco3)c(N3CCCC(C)C3)nc12 (stereo not given) :
Result: 0

Ask: // return assay outcome for CCCc1[nH]nc2c1C(c1ccc(OCCN3CCOCC3)c(OC)c1)C(C#N)=C(N)O2 (stereo not given)
Result: 0

Ask: Recorded test outcome, item CCN(CC)CCCN(C(=O)c1cccs1)c1nc(-c2ccc(OC)cc2)cs1
Result: 0

Ask: // outcome(item) with item = CCOC(=O)C(C(=O)OCC)C(C(=O)OCC)N1CCOCC1 (stereo not given)
Result: 0

Ask: Hi, do you know how N#C/C(=C/c1ccc(N2CCOCC2)o1)c1ccc(Br)cc1 came out in this test?
Result: 0

Ask: Please let me know the test result on file for COc1ccc(OC)c(C2C(C(=O)Nc3nc4ccccc4s3)=C(C)NC3=C2C(=O)CCC3)c1 (stereo not given) .
Result: 0

Ask: I would be grateful if you could indicate the recorded call for COC(=O)Cn1cc(/C=C/[N+](=O)[O-])c2ccccc21 .
Result: 0

Ask: Lab log entry: COc1ccc(-c2cc(C(F)(F)F)nc(S(C)(=O)=O)n2)cc1 — outcome as called in the assay?
Result: 0

Ask: Hello, I am checking results. What call was entered for O=C(N=Nc1c(O)[nH]c2ccccc12)c1ccco1 ?
Result: 0

Ask: What call does the record list for COc1ccccc1NC(=O)c1ccc([N+](=O)[O-])o1 ?
Result: 0

====

# Study Target: AP-2 complex subunit beta (Homo sapiens) (UniProt P63010)
# Sequence (P63010 whole entry, looked up, one chain of several): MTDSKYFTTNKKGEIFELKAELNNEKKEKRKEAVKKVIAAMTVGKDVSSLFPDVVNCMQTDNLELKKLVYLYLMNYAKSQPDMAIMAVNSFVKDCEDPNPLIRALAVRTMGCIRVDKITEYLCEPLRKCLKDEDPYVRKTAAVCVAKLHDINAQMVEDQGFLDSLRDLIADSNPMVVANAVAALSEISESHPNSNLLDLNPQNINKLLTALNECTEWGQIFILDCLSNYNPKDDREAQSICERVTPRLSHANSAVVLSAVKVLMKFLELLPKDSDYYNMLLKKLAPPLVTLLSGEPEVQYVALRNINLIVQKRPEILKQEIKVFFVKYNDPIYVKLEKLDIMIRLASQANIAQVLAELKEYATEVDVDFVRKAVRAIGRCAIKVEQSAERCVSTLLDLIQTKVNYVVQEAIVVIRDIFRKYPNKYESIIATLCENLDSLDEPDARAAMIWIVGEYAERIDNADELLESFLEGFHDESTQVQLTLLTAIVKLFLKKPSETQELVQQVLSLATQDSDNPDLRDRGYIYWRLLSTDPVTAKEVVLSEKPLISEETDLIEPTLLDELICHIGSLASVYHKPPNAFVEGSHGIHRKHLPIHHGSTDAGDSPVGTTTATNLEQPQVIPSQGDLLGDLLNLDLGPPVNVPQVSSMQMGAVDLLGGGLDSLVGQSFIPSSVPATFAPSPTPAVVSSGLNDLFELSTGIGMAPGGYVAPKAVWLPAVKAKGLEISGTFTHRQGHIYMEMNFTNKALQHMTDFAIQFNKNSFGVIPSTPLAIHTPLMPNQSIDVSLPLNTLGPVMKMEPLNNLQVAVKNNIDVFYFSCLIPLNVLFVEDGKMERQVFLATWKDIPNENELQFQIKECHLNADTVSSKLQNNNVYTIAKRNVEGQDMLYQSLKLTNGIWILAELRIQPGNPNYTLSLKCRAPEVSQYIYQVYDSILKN
# Assay Name: inhibitors of arrestin peptide binding to AP2, pilot screen, biochemical, validation set, GST-AP2 beads, flow cytometry (AID 504541);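 note: AP2 carries R879A mutation and is captured from E. coli lysate; bead-bound FITC arrestin peptide fluorescence measuring arrestin peptide binding to AP2; 0% = DMSO wells and 100% = excess unlabeled arrestin peptide control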
# Measurement Setup: FITC arrestin peptide, at 10 µM, stronger effect = higher value, AP2 beta2 appendage fragment, R879A mutant
Measured Quantity: inhibition (%)
Quick reminder: number only, in %, skip the unit.

Cn1c2ccc(CC(=O)O)cc2c2cc(CC(=O)O)ccc21 : 2.08
COC(=O)c1cc(OC)c(OC)cc1NC(=O)Nc1ccc(OC)cc1OC : 11.9
Cc1nc(C)c(C)nc1C : 31.6

So for CCn1c2ccccc2c2cc(CC(N)=O)ccc21 , the logged inhibition turned out to be 1.51

Entry Cc1ccccc1OCC(O)CN1CCN(C)CC1 (stereo not drawn) — recorded inhibition = 5.62

====

Reported GFP response relative to DMSO values for a set of molecules
# Assay Name: LAP4-GFP expression modulators in yeast, confirmation, cell-based, cherry picks, flow cytometry, mother/daughter gates (AID 2271);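 note: ratio of sample to DMSO plate mean so 100% equals DMSO level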
# Measurement Setup: S. cerevisiae LAP4-GFP strain, 3 h, measured here: mother cell gate response, at 10 µM, stronger effect = higher value, 100 means same as DMSO control
Please reply with the bare figure in % and do not write the unit itself.

Below, each entry is followed by its recorded GFP response relative to DMSO result.
COc1ccc([N+](=O)[O-])c(S(=O)(=O)c2ccccc2)n1 : 204
Cc1ccc(NC(=S)N/N=C/c2c(C)[nH]c3ccccc23)cc1 : 104
COc1cc(NC(=O)c2cccc(C)c2)ccc1NC(=O)c1cc2ccccc2o1 : 103
COC(=O)c1ccc(NC(=O)c2nc(S(=O)(=O)Cc3cccc(C)c3)ncc2Cl)cc1 : 106
COc1ccccc1Oc1ccc(S(=O)(=O)N2CCCC2)cc1 : 95.2
Cc1nnc(NC(=O)c2csc3c2CCC(C)C3)s1 (configuration not stated) : 124
COC(=O)c1ccc(/C=N\NC(=O)c2ccc(C)cc2Cl)cc1 : 95.1
Cc1ccc(/C=C2/SC(=S)N(C3CCCCC3)C2=O)o1 : 161
O=S(=O)(c1cccc(C(F)(F)F)c1)c1ccc(O)cn1 : 95.1
Cc1cccc(NC(=S)NCC23C=CC(O2)C2C(=O)N(c4ccc(Cl)cc4)C(=O)C23)c1 (configuration not stated) : 104

The molecule listed as Cc1nc(C)c(-c2csc(NCCc3ccccc3)n2)s1 shows GFP response relative to DMSO equal to 113

Lookup result for CCS(=O)(=O)N1N=C(c2ccc(NS(C)(=O)=O)cc2)CC1c1ccccc1 (configuration not stated) ; measured GFP response relative to DMSO: 99.5

Just so you know, measured GFP response relative to DMSO for Cc1cc(C)c(S(=O)(=O)NCC23C=CC(O2)C2C(=O)N(c4ccccc4)C(=O)C23)c(C)c1 (configuration not stated) came out at 108

GFP response relative to DMSO reported for this molecule O=[N+]([O-])c1ccc(Sc2ccccc2)nc1 : 105

// field: GFP response relative to DMSO; key: Cc1ccc(C(=O)Oc2oc(-c3ccccc3)nc2C=Nc2ccc(N(C)C)cc2)cc1 ; value = 93

The measured GFP response relative to DMSO associated with Cc1nc(Sc2ccc(Cl)cc2)c(C#N)c(C)c1[N+](=O)[O-] reads 91.3

The reported value for Cc1ccc(N2C(=O)C3C4C=CC(CNC(=S)Nc5cccc(Cl)c5)(O4)C3C2=O)cc1 (configuration not stated) in terms of GFP response relative to DMSO is 97.3

Sure, the documented GFP response relative to DMSO for O=C(O)C1Sc2[nH]c(=O)sc2C2c3cc(Br)ccc3OC(=O)C12 (configuration not stated) is 200

Entry Cc1ccc(NC(=O)c2ccc([N+](=O)[O-])o2)cc1C — recorded GFP response relative to DMSO = 127

// sample O=C(Nc1nc(-c2ccccc2Cl)cs1)c1cccnc1 , its GFP response relative to DMSO was 99.3

# GFP response relative to DMSO (molecule: COc1ccccc1-c1nnc(NC(=O)c2ccc3c(c2)OCO3)s1 ) is 89

# GFP response relative to DMSO of COc1cc(NC(=O)c2ccc(F)cc2)ccc1NC(=O)c1cc2ccccc2o1 = 96.2

====

# System: anti-desmoglein-3 scFv antibody binding to human DSG3
# Assay Name: inhibitors of anti-DSG3 scFv binding to DSG3, pilot screen, biochemical, validation compound set, bead-based, flow cytometry (AID 588368);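 note: signal is the median channel fluorescence of bead-bound GFP antibody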
# Measurement Setup: Protein G beads, DSG3-Fc, scFv-GFP binding, at 10 µM, stronger effect = lower value
Measured Quantity: binding (% of control) (%)
Enter your answer as a number in %; do not include the unit.

CCN(Cc1ccncc1)Cc1nc(Cc2ccccc2Cl)no1 : 101
CC1CNCCN1S(=O)(=O)c1cccc2cnccc12 (stereo not drawn) : 96.3

Summary for this compound, COc1ccc(O)c(N)c1 : binding (% of control) is 99.1

What the record says about Clc1ccc(Cn2c(CN3CCCC3)nc3ccccc32)cc1 : binding (% of control) is 102

Briefly, binding (% of control) measured for CC(=O)OCC(=O)[C@@]12OC3(CCCC3)O[C@@H]1C[C@H]1[C@@H]3CCC4=CC(=O)C=C[C@]4(C)[C@@]3(F)[C@@H](O)C[C@@]12C : 96.4

Record COc1ccc(C(=O)Nc2ccc(OC)c([N+](=O)[O-])c2)cc1Br , field binding (% of control): 83.4

Query COc1c2occc2c(OC)c2c(=O)cc(C(F)(F)C(F)(F)F)oc12 yields binding (% of control) of 103

Per the record, CCCCC[C@H](O)/C=C/[C@@H]1[C@@H](C/C=C\CCCC(=O)O)[C@H]2CO[C@@H]1C2 has binding (% of control) of 101

Sure, the documented binding (% of control) for CNCCC=C1c2ccccc2CCc2ccccc21 is 100

Lab note: measured binding (% of control) of CC(C)OC(=O)CC1C(=O)NCCN1C(=S)NC(=O)c1ccccc1Cl (stereo not drawn) was 111

The reported value for Cc1ccc2c(c1)C(O)(c1c(C)[nH]c3ccccc13)C(=O)N2 (stereo not drawn) in terms of binding (% of control) is 102

binding (% of control) measured on CC(=O)c1cn(C)c(=O)[nH]c1=O = 107
